measurement-protocol: xn = mol fraction of the nth substance listed
details: 283.15 K; 100 kPa; Liquid; Cone and plate viscometry; x1 = 0.101
assay-metric: viscosity (mPa·s)

* CCCCCCn1cc[n+](C)c1C.O=[N+]([O-])c1cn[n-]c1 [1-hexyl-2,3-dimethylimidazolium 4-nitropyrazolide] + CCCCCCCC[P+](CC)(CC)CC.O=S(=O)([N-]S(=O)(=O)C(F)(F)F)C(F)(F)F | 284
* CC(=O)[O-].CCCCCCCCCCCCCC[P+](CCCCCC)(CCCCCC)CCCCCC [trihexyl(tetradecyl)phosphonium acetate] + CCCCCC[n+]1ccn(C)c1.O=S(=O)([N-]S(=O)(=O)C(F)(F)F)C(F)(F)F | 251
* CCCCCCC[P+](CC)(CC)CC.O=[N+]([O-])c1cn[n-]c1 [triethylheptylphosphonium 4-nitropyrazolide] + CC[P+](CC)(CC)COCCOC.O=S(=O)([N-]S(=O)(=O)C(F)(F)F)C(F)(F)F | 80
* CCCCCCn1cc[n+](C)c1.O=[N+]([O-])c1cn[n-]c1 [1-hexyl-3-methylimidazolium 4-nitropyrazolide] + CCCCCCCCCCCCCC[P+](CCCCCC)(CCCCCC)CCCCCC.O=S(=O)([N-]S(=O)(=O)C(F)(F)F)C(F)(F)F | 816

----------
measurement-protocol: xn = mol fraction of the nth substance listed
details: 283.15 K; 100 kPa; Liquid; Cone and plate viscometry; x1 = 0.3
± gives the expanded uncertainty stated by the source.
Recorded viscosity for the following molecules
assay-metric: viscosity

• CCCCCCn1cc[n+](C)c1.N#Cc1ccc[n-]1 [1-hexyl-3-methylimidazolium 2-cyanopyrrolide] + CCCCCCCCCCCCCC[P+](CCCCCC)(CCCCCC)CCCCCC.O=S(=O)([N-]S(=O)(=O)C(F)(F)F)C(F)(F)F = 851 ± 110 mPa·s
• CCCCCCCCCCCCCC[P+](CCCCCC)(CCCCCC)CCCCCC.N#Cc1ccc[n-]1 [trihexyl(tetradecyl)phosphonium 2-cyanopyrrolide] + CCCCCC[n+]1ccn(C)c1.O=S(=O)([N-]S(=O)(=O)C(F)(F)F)C(F)(F)F = 455 ± 58 mPa·s
• CCCCCCCCCCCCCC[P+](CCCCCC)(CCCCCC)CCCCCC.O=[N+]([O-])c1cn[n-]c1 [trihexyl(tetradecyl)phosphonium 4-nitropyrazolide] + CCCCCC[n+]1ccn(C)c1.O=S(=O)([N-]S(=O)(=O)C(F)(F)F)C(F)(F)F = 565 ± 73 mPa·s
• CC(=O)[O-].CCCCCCCCCCCCCC[P+](CCCCCC)(CCCCCC)CCCCCC [trihexyl(tetradecyl)phosphonium acetate] + CCCCCC[n+]1ccn(C)c1.O=S(=O)([N-]S(=O)(=O)C(F)(F)F)C(F)(F)F = 644 ± 84 mPa·s
• CCCCCCCCCCCCCC[P+](CCCCCC)(CCCCCC)CCCCCC.N#Cc1ccc[n-]1 [trihexyl(tetradecyl)phosphonium 2-cyanopyrrolide] + CCCCCCn1cc[n+](C)c1C.O=S(=O)([N-]S(=O)(=O)C(F)(F)F)C(F)(F)F = 699 ± 91 mPa·s

----------
details: 343.15 K; 100 kPa; Liquid; Vibrating tube method
assay-metric: mass density (kg/m3)

• CCn1cc[n+](C)c1.O=S(=O)([N-]S(=O)(=O)C(F)(F)F)C(F)(F)F = 1474.4
• CCCCCCn1cc[n+](C)c1C.O=S(=O)([N-]S(=O)(=O)C(F)(F)F)C(F)(F)F = 1320.2
• CCCCCCCC[P+](CC)(CC)CC.O=[N+]([O-])c1cn[n-]c1 [triethyloctylphosphonium 4-nitropyrazolide] = 1005
• CCCC[n+]1ccn(C)c1.O=S(=O)([N-]S(=O)(=O)C(F)(F)F)C(F)(F)F = 1394.8
• CCCCCC[n+]1ccn(C)c1.O=S(=O)([N-]S(=O)(=O)C(F)(F)F)C(F)(F)F = 1331.4

----------
measurement-protocol: xn = mol fraction of the nth substance listed
details: 283.15 K; 100 kPa; Liquid; Cone and plate viscometry; x1 = 0.1
# label = class 1 if viscosity < 300 mPa·s else class 0

• CCCCCCn1cc[n+](C)c1.O=[N+]([O-])c1cn[n-]c1 [1-hexyl-3-methylimidazolium 4-nitropyrazolide] + CCCCCCCC[P+](CC)(CC)CC.O=S(=O)([N-]S(=O)(=O)C(F)(F)F)C(F)(F)F = class 1
• CCCCCCn1cc[n+](C)c1.N#Cc1ccc[n-]1 [1-hexyl-3-methylimidazolium 2-cyanopyrrolide] + CCCCCCCCCCCCCC[P+](CCCCCC)(CCCCCC)CCCCCC.O=S(=O)([N-]S(=O)(=O)C(F)(F)F)C(F)(F)F = class 0
• CCCCCCCCCCCCCC[P+](CCCCCC)(CCCCCC)CCCCCC.N#Cc1ccc[n-]1 [trihexyl(tetradecyl)phosphonium 2-cyanopyrrolide] + CCCCCC[n+]1ccn(C)c1.O=S(=O)([N-]S(=O)(=O)C(F)(F)F)C(F)(F)F = class 1
• CCCCCCCCCCCCCC[P+](CCCCCC)(CCCCCC)CCCCCC.N#Cc1ccc[n-]1 [trihexyl(tetradecyl)phosphonium 2-cyanopyrrolide] + CCCCCCn1cc[n+](C)c1C.O=S(=O)([N-]S(=O)(=O)C(F)(F)F)C(F)(F)F = class 0
• CCCCCCCCCC[P+](CC)(CC)CC.O=[N+]([O-])c1cn[n-]c1 [decyltriethylphosphonium 4-nitropyrazolide] + CC[P+](CC)(CC)COCCOC.O=S(=O)([N-]S(=O)(=O)C(F)(F)F)C(F)(F)F = class 1

----------
measurement-protocol: xn = mol fraction of the nth substance listed
details: 278.15 K; 100 kPa; Liquid; Cone and plate viscometry; x1 = 0.5
# label = Criterion met if viscosity >= 2000 mPa·s else Criterion not met

- CCCCCCCC[P+](CC)(CC)CC.O=[N+]([O-])c1cn[n-]c1 [triethyloctylphosphonium 4-nitropyrazolide] + CCCCCCn1cc[n+](C)c1C.O=S(=O)([N-]S(=O)(=O)C(F)(F)F)C(F)(F)F: Criterion not met
- CCCCCCn1cc[n+](C)c1.O=[N+]([O-])c1cn[n-]c1 [1-hexyl-3-methylimidazolium 4-nitropyrazolide] + CCCCCCCCCCCCCC[P+](CCCCCC)(CCCCCC)CCCCCC.O=S(=O)([N-]S(=O)(=O)C(F)(F)F)C(F)(F)F: Criterion not met
- CCCCCCn1cc[n+](C)c1C.O=[N+]([O-])c1cn[n-]c1 [1-hexyl-2,3-dimethylimidazolium 4-nitropyrazolide] + CCCCCCCCCCCCCC[P+](CCCCCC)(CCCCCC)CCCCCC.O=S(=O)([N-]S(=O)(=O)C(F)(F)F)C(F)(F)F: Criterion met
- CCCCCCC[P+](CC)(CC)CC.O=[N+]([O-])c1cn[n-]c1 [triethylheptylphosphonium 4-nitropyrazolide] + CC[P+](CC)(CC)COCCOC.O=S(=O)([N-]S(=O)(=O)C(F)(F)F)C(F)(F)F: Criterion not met
- CCCCCCCCCCCCCC[P+](CCCCCC)(CCCCCC)CCCCCC.N#Cc1ccc[n-]1 [trihexyl(tetradecyl)phosphonium 2-cyanopyrrolide] + CCCCCCn1cc[n+](C)c1C.O=S(=O)([N-]S(=O)(=O)C(F)(F)F)C(F)(F)F: Criterion not met

----------
Recorded viscosity for the following compounds
measurement-protocol: xn = mol fraction of the nth substance listed
details: 283.15 K; 100 kPa; Liquid; Cone and plate viscometry; x1 = 0.898
assay-metric: viscosity (mPa·s)

* CCCCCCn1cc[n+](C)c1C.O=[N+]([O-])c1cn[n-]c1 [1-hexyl-2,3-dimethylimidazolium 4-nitropyrazolide] + CCCCCCCCCCCCCC[P+](CCCCCC)(CCCCCC)CCCCCC.O=S(=O)([N-]S(=O)(=O)C(F)(F)F)C(F)(F)F | 4009
* CCCCCCCCCCCCCC[P+](CCCCCC)(CCCCCC)CCCCCC.O=[N+]([O-])c1cn[n-]c1 [trihexyl(tetradecyl)phosphonium 4-nitropyrazolide] + CCCCCC[n+]1ccn(C)c1.O=S(=O)([N-]S(=O)(=O)C(F)(F)F)C(F)(F)F | 1971
* CCCCCCCC[P+](CC)(CC)CC.O=[N+]([O-])c1cn[n-]c1 [triethyloctylphosphonium 4-nitropyrazolide] + CCCCCC[n+]1ccn(C)c1.O=S(=O)([N-]S(=O)(=O)C(F)(F)F)C(F)(F)F | 804
* CCCCCCCCCCCCCC[P+](CCCCCC)(CCCCCC)CCCCCC.N#Cc1ccc[n-]1 [trihexyl(tetradecyl)phosphonium 2-cyanopyrrolide] + CCCCCC[n+]1ccn(C)c1.O=S(=O)([N-]S(=O)(=O)C(F)(F)F)C(F)(F)F | 1223

----------
measurement-protocol: xn = mol fraction of the nth substance listed
details: 278.15 K; 100 kPa; Liquid; Cone and plate viscometry; x1 = 0.898
Recorded viscosity for the following molecules
assay-metric: viscosity (mPa·s)

- CCCCCCn1cc[n+](C)c1C.O=[N+]([O-])c1cn[n-]c1 [1-hexyl-2,3-dimethylimidazolium 4-nitropyrazolide] + CCCCCCCCCCCCCC[P+](CCCCCC)(CCCCCC)CCCCCC.O=S(=O)([N-]S(=O)(=O)C(F)(F)F)C(F)(F)F: 7584
- CCCCCCCC[P+](CC)(CC)CC.O=[N+]([O-])c1cn[n-]c1 [triethyloctylphosphonium 4-nitropyrazolide] + CCCCCC[n+]1ccn(C)c1.O=S(=O)([N-]S(=O)(=O)C(F)(F)F)C(F)(F)F: 1242
- CCCCCCCCCCCCCC[P+](CCCCCC)(CCCCCC)CCCCCC.O=[N+]([O-])c1cn[n-]c1 [trihexyl(tetradecyl)phosphonium 4-nitropyrazolide] + CCCCCC[n+]1ccn(C)c1.O=S(=O)([N-]S(=O)(=O)C(F)(F)F)C(F)(F)F: 3071
- CCCCCCCCCCCCCC[P+](CCCCCC)(CCCCCC)CCCCCC.N#Cc1ccc[n-]1 [trihexyl(tetradecyl)phosphonium 2-cyanopyrrolide] + CCCCCC[n+]1ccn(C)c1.O=S(=O)([N-]S(=O)(=O)C(F)(F)F)C(F)(F)F: 1844

Each recorded value in this set is attributed to the NIST ThermoML archive (doi:10.1021/acs.jced.7b00221).
